Data origin: patent US20240239855A1

Target: T1, human IL-22 receptor (human IL-22Ra and human IL-10Rb) on cells (human, UniProt Q8N6P7 16-574; Q08334 20-325)
T1 sequence (looked up) 1: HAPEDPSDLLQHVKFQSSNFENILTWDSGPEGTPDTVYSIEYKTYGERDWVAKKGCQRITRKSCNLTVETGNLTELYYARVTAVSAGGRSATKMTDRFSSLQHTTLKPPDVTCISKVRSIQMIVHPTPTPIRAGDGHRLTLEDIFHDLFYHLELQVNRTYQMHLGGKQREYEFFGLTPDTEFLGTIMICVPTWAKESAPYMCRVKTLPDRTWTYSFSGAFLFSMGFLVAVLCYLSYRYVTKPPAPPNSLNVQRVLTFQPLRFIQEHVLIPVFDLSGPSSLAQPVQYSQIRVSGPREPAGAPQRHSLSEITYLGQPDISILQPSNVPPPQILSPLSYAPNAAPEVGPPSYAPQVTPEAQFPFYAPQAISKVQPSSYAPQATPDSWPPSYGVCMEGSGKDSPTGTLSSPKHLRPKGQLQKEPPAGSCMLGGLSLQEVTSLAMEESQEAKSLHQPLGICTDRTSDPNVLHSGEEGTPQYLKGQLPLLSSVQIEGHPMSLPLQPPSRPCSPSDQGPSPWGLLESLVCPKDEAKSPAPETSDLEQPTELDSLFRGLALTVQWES
T1 sequence (looked up) 2: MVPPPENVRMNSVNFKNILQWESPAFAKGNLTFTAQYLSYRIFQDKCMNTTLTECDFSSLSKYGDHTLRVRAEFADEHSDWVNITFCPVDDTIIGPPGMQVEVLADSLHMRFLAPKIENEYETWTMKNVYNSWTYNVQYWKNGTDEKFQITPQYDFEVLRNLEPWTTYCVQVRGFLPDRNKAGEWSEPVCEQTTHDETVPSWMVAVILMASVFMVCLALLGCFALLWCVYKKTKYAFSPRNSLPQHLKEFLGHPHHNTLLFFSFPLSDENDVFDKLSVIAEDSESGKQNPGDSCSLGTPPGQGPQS
Assay: cell-based or functional assay
experimental-readout: EC50, HepG2 cell assay for pSTAT3 (AlphaScreen SureFire STAT3 p-Tyr705) (nM)

Comparator 4 (ligand, C18 diacid attached through linker γGlu-OEG-OEG-C2DA-Ac to Cys 1C) GPGCPISSHCRLDKSNFQQPYITNRTFMLAKEASLADNNTDVRLIGEKLFHGVSMSERCYLMKQVLNFTLEEVLFPQSDRFQPYMQEVVPFLARLSNRLSTCHIEGDDLHIQRNVQKLKDTVKKLGESGEIKAIGELDLLFMSLRNACI    10.1
native mature human IL-22 (hIL-22) (ligand) APISSHCRLDKSNFQQPYITNRTFMLAKEASLADNNTDVRLIGEKLFHGVSMSERCYLMKQVLNFTLEEVLFPQSDRFQPYMQEVVPFLARLSNRLSTCHIEGDDLHIQRNVQKLKDTVKKLGESGEIKAIGELDLLFMSLRNACI    3.88
Comparator 5 (ligand, C18 diacid attached through linker γGlu-OEG-OEG-C2DA-Ac to Cys -7C (in the N-terminal peptide)) GPGSGSGSCGSGSGSAPISSHCRLDKSNFQQPYITNRTFMLAKEASLADNNTDVRLIGEKLFHGVSMSERCYLMKQVLNFTLEEVLFPQSDRFQPYMQEVVPFLARLSNRLSTCHIEGDDLHIQRNVQKLKDTVKKLGESGEIKAIGELDLLFMSLRNACI    6.98
Comparator 14 (ligand) GPISSHCRLDKSNFQQPYITNRTFMLAKEASLADNNTDVRLIGEKLFHGVSMSERCYLMKQVLNFTLEEVLFPQSDRFQPYMQEVVPFLARLSNRLSTCHIEGDDLHIQRNVQKLKDTVKKLGESGEIKAIGELDLLFMSLRNACI    4.73
Comparator 9 (ligand, C18 diacid attached through linker γGlu-OEG-OEG-C2DA-Ac to Cys 1C) GPGCPISSHCRLDKSNFQQPYITNRTFMLAKEASLADQNTDVRLIGEKLFHGVSMSERCYLMKQVLQFTLEEVLFPQSDRFQPYMQEVVPFLARLSNRLSTCHIEGDDLHIQRNVQKLKDTVKKLGESGEIKAIGELDLLFMSLRNACI    14.9
